- ASSAY DETAILS: gradient 5% acetonitrile 3 min, to 50% in 2 min, to 85% in 15 min, held 3 min, 100 µL/min
- TEST CONDITIONS: column: Zorbax Extend-C18 2.1 x 50 mm; eluents: water / acetonitrile, 0.1% formic acid
PROPERTY MEASURED: RP-LC retention time (s)
// return numeric value only (unit: s, not printed)

Completed entries (count: 2):
Ask | Any idea what its RP-LC retention time is? The molecule is `Cc1ccc(Nc2nc(C)cc(N3CCN(C(=O)Nc4ccccc4C)CC3)n2)cc1`
Reply | 704

Ask | Another molecule to look at: `Cc1cccc(NC(=O)Cn2ncn3c(C)c(C(=O)NCC(C)C)c(C)c3c2=O)c1`
Reply | 594

Next:
Ask | Sample `COc1ccccc1Nc1c(-c2ccc(C)cc2)nc2cnccn12` — what was its RP-LC retention time?
Reply | 954

Ask | Param item: `Cc1[nH]nc(-c2c(C)sc(C)c2S(=O)(=O)NCCc2ccc(Cl)cc2)c1C`
Reply | 1130

Ask | Same for `O=C(c1nnc(-c2csc(S(=O)(=O)N3CCN(c4ccccn4)CC3)c2)o1)N1CCCCC1`
Reply | 709

Ask | Follow-up item: `O=C(NCc1ccsc1)C(=O)Nc1ccon1`
Reply | 665

Ask | Repeat for the following molecule: `COc1ccc(-c2noc(CSc3nccn3-c3ccccc3)n2)cc1`
Reply | 869

Ask | And the next one, `Cc1cc(C)n2nc(CN(C(=O)c3ccco3)c3cccc(Cl)c3)nc2n1` ?
Reply | 776
